The origin of these recorded values is PubChem BioAssay (NCI).

System: SR leukemia
Experiment Notes: NCI tumour cell line growth inhibition, 48 h

| Molecule | TGI |
| --- | --- |
| CN(C)CCOc1ccc([N+](=O)[O-])c2cccnc12 | > 100 µM |
| O=C(NN1C(=O)C(Cl)C1c1ccc(Cl)cc1)c1c(Cl)c(Cl)c(Cl)c(Cl)c1-c1nc2ccccc2[nH]1 (stereo not given) | > 100 µM |
| CC(C)CNc1nc(-c2ccccc2Cl)nc2ccccc12 | 44.9 µM |
| COc1cc(C2c3cc4c(cc3OC(C)(N3CCCC3)C2C)OCO4)cc(OC)c1OC (stereo not given) | 9.62 µM |
| CS(=O)(=O)Nc1ccc2ccccc2c1-c1c(NS(C)(=O)=O)ccc2ccccc12 | > 25 µM |
| O=C(/C=C/c1ccccc1)Nc1ncc(Cc2ccccc2Cl)s1 | > 100 µM |
| Cc1ccc(C)c(NC(=O)CC2Sc3ccccc3NC2=O)c1 (stereo not given) | > 100 µM |
| CCN1C(=O)/C(=C/c2c(Cl)[nH]c3cc(C)c(OC)cc23)c2ccccc21 | > 100 µM |
| COC(=O)c1csc([C@@H](OC(=O)[C@H](C)[C@H](CCCC(C)(Cl)Cl)OC(=O)c2csc([C@H](O)CO)n2)C(C)C)n1 | 32.2 µM |
| CC(C)NC(=O)OCc1c2c(n(C)c1COC(=O)NC(C)C)-c1cc(Cl)c(Cl)cc1CC2 | > 100 µM |
